Tgt: T1, human BCMA on NCI-H929, OPM2 and Raji cells (human, UniProt Q02223 1-184)
T1 construct: endogenous BCMA of human cell lines; also called TNFRSF17; CD269
T1 chain: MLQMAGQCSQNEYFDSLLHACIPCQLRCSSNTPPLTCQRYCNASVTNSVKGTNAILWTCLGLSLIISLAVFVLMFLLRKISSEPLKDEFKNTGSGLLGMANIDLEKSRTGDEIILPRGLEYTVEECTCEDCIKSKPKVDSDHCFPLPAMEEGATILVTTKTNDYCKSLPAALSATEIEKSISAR
Protocol summary: flow cytometry on NCI-H929 cells (BCMA high), fluorescent anti-human IgG1 secondary antibody, MFI against test article concentration
Measured EC50 (read off the curve), listed per entry.

Known results for binders:
AB215-ADL1-D2-02 (antibody, human IgG1, kappa, V domains shown, ADL1-D2 linker-payload on cysteine residues of the antibody, DAR 3.96) VH: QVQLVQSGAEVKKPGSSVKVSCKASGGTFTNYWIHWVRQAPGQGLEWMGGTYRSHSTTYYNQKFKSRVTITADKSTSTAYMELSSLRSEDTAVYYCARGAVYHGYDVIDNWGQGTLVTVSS VL: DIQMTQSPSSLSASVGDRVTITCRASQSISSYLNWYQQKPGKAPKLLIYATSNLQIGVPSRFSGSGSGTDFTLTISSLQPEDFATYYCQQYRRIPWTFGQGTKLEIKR
~1 nM
AB216-ADL1-D2-02 (antibody, human IgG1, kappa, V domains shown, ADL1-D2 linker-payload on cysteine residues of the antibody, DAR 3.8) VH: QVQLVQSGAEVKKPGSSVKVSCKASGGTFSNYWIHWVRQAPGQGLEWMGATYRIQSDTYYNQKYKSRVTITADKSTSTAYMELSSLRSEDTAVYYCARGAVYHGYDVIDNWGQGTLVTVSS VL: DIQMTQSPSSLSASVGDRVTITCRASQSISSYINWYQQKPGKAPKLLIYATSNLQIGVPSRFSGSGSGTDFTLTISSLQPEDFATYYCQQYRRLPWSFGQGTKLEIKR
~0.7 nM
AB213-ADL1-D2-02 (antibody, human IgG1, kappa, V domains shown, ADL1-D2 linker-payload on cysteine residues of the antibody, DAR 4.18) VH: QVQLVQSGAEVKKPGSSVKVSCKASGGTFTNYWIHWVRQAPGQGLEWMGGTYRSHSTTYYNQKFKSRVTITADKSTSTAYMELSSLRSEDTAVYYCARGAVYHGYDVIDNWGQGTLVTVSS VL: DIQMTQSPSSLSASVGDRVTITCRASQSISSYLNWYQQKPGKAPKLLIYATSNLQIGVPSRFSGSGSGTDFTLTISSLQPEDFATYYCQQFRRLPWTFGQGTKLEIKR
~0.6 nM

Would you kindly share the measured EC50 (read off the curve) for AB200-mcMMAF-05 (antibody, human IgG1, kappa, V domains shown, mcMMAF (ADL10-MMAF) linker-payload on cysteine residues of the antibody, DAR 4.0, antibody-drug conjugate; also called AB200-ADL10-MMAF) VH: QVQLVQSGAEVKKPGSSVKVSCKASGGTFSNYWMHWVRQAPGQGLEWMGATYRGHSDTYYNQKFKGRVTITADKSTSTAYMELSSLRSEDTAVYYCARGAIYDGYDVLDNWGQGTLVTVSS VL: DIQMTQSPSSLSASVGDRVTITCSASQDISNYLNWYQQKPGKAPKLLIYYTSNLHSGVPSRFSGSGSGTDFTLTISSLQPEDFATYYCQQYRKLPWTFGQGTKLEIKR ?
~6 nM

Look up EC50 (read off the curve) for this binder: AB200-ADL5-D4-05 (antibody, human IgG1, kappa, V domains shown, ADL5-D4 linker-payload on cysteine residues of the antibody, DAR 4.39, antibody-drug conjugate) VH: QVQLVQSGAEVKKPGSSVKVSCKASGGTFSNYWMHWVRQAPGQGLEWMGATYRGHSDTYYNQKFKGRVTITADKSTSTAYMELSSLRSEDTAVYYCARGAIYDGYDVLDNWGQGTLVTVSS VL: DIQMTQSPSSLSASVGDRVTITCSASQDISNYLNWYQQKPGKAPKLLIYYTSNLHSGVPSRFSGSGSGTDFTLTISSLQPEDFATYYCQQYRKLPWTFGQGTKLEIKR
~9 nM

Given the entry AB217-ADL1-D2-02 (antibody, human IgG1, kappa, V domains shown, ADL1-D2 linker-payload on cysteine residues of the antibody, DAR 3.7) VH: QVQLVQSGAEVKKPGSSVKVSCKASGGTFTNYWIHWVRQAPGQGLEWMGATYRSHSDTYYAQKYKSRVTITADKSTSTAYMELSSLRSEDTAVYYCARGAVYHGYDVIDNWGQGTLVTVSS VL: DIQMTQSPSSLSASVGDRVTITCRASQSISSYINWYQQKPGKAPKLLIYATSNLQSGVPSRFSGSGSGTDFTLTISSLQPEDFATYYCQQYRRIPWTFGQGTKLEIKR , report its measured EC50 (read off the curve).
~0.4 nM

Fill in the blank: the reported EC50 (read off the curve) of AB214-ADL1-D2-02 (antibody, human IgG1, kappa, V domains shown, ADL1-D2 linker-payload on cysteine residues of the antibody, DAR 4.12) VH: QVQLVQSGAEVKKPGSSVKVSCKASGGTFSNYWIHWVRQAPGQGLEWMGATYRSQSDTYYNQKYKSRVTITADKSTSTAYMELSSLRSEDTAVYYCARGAVYHGYDVIDNWGQGTLVTVSS VL: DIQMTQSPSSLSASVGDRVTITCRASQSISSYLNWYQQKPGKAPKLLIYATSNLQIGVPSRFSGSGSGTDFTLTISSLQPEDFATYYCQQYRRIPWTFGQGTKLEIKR is ____.
~1 nM

Each recorded value in this set is attributed to patent US20240327535A1.
